These data points were gathered from PubChem BioAssay (NCI).

# Test system: ACHN renal
# PROTOCOL_DESCRIPTION: NCI-60 one-dose screen, 48 h (100 = growth as untreated, 0 = no growth, -100 = all killed)
# MEASUREMENT_CONTEXT: 10 µM unless noted
This is part of a sample that, as a whole, favours compounds with a hit. Of some 83,000 tested, about 20% had one in any assay.
So basically: growth at 60% or higher? That is Y. Lower than 60%? That is N.

1) c1ccc(-c2ccc(-c3nc4ccccc4[nH]3)cc2)cc1
Y
2) CN1C(=O)N(C)C2C1NN=c1s/c(=C\c3ccc(Cl)cc3Cl)c(=O)n12 (stereo unspecified)
N
3) O=C(O)CCCN1C(=O)C2C3CCC(C3)C2C1=O (stereo unspecified)
Y
4) CC(C)CCNCC(O)Cn1c2ccccc2c2ccccc21 (stereo unspecified)
N
5) CCOc1c(Br)cc(C2C(C(=O)OC)=CN(C)C=C2C(=O)OC)cc1OC
Y
6) O=C(NCc1ccccc1)C1CN(c2ccc(Cl)cc2)N(c2ccc(Cl)cc2)C1=O (stereo unspecified)
Y

###

# Tested on: OVCAR-5 ovarian
# PROTOCOL_DESCRIPTION: NCI-60 one-dose screen, 48 h (100 = growth as untreated, 0 = no growth, -100 = all killed)
# MEASUREMENT_CONTEXT: 10 µM unless noted
About 83,000 compounds went through this panel and 20% of them were active in at least one assay; those are over-represented in the sample as a whole.
MEASURED_QUANTITY: growth (%)

1) CC(=O)c1ccc(NC(=O)Nc2ccc(S(=O)(=O)Nc3ccc(Cl)nn3)cc2)cc1
95.3
2) COc1ccc2sc(N(Cc3cccnc3)C(=O)c3ccc(C#N)cc3)nc2c1
96.7
3) CNCCNc1nc2ccccc2c2c(=O)c3cccc(C)c3sc12
55.3
4) O=C(Nc1ccc(Cl)cc1)N1CCN(c2ccc3nncn3n2)CC1
87.2
5) CCOC(=O)c1c2c(n3cccc(Cl)c13)C(=O)c1ncccc1C2=O
84.1
6) O=C(/C=C/c1ccc(F)cc1)c1ccc(Nc2nc(NCCO)nc(Nc3ccc(Cl)cc3)n2)cc1
96.8
7) COc1cc(CNC(=O)c2ccsc2Nc2ccnc(C(F)(F)F)c2)ccc1O
107
8) CS(=O)(=O)Nc1ccc(C(=O)NC(C(=O)NO)c2ccc(-c3cccc(F)c3)cc2)cc1 (stereo not given)
31.6
9) O=C(Nc1ccsc1C(=O)NC1CCCCC1)c1ccc(F)cc1
98.3
10) COc1ccccc1C1=C(Br)C(=O)c2nc(C)ccc2C1=O
110

###

# System: OVCAR-3 ovarian
# PROTOCOL_DESCRIPTION: NCI-60 one-dose screen, 48 h (100 = growth as untreated, 0 = no growth, -100 = all killed)
# MEASUREMENT_CONTEXT: 10 µM unless noted
About 83,000 compounds went through this panel and 20% of them were active in at least one assay; those are over-represented in the sample as a whole. Calls of active or inactive are those of the source. How the source made its calls: active means growth percent below 10; inactive means the rest.
Entries and their growth
MEASURED_QUANTITY: growth

1. COc1cc(NC(=O)CCSc2nc3ccccc3c(=O)n2Cc2ccccc2)cc(OC)c1OC
88.1% (inactive)
2. Clc1ncccc1Nc1ccc2nnc(-c3ccncc3)n2n1
102% (inactive)
3. Cc1ccc2sc3c(NCCCNCCO)nc4ccccc4c3c(=O)c2c1
26.6% (inactive)
4. O=C(Nc1ccccc1O)c1ccc(-c2ccc(Cl)cc2Cl)o1
85.6% (inactive)
5. O=c1c2cc(F)cc(Cl)c2sc2c(Cl)nc3ccccc3c12
108% (inactive)
6. O=C(Nc1ccsc1C(=O)NC1CCCCC1)c1ccc(F)cc1
111% (inactive)
